test: probe aCHRDL2 binding to arrayed compounds – biochemical, biotinylated probe, 635/667 nm fluorescence, primary screen (AID 1100); settings: small-molecule microarray, higher = more signal
measurementType: composite z-score

compound=CN(C)CCCNC(=O)[C@@H]1c2ccccc2C(=O)N(Cc2ccccc2C(F)(F)F)[C@H]1c1ccc(CO)cc1 numericresult=0.706
compound="CC=CC(O)C1C=CC2C(=O)NC(=O)C2N1Nc1ccc(Cl)cc1Cl (stereo not given)" numericresult=0.55
compound=COc1ccc([Si](C)(C)[C@@H]2[C@@H](CC(=O)N3CCC[C@H]3CO)O[C@]3(C(=O)N(Cc4cccc(N5CCCCC5=O)c4)c4ccccc43)[C@H]2C)cc1 numericresult=-0.115
compound=CC(C)(C)OC(=O)CC[C@@]1(C(=O)NCCN2CCOCC2)N=C(c2ccc(OCCCO)cc2)O[C@@H]1c1ccccc1CN=[N+]=[N-] numericresult=0.454
compound=COC(=O)[C@]1(CCC(=O)OC(C)(C)C)N=C(c2ccc(OCCCO)cc2)O[C@@H]1c1ccccc1N=[N+]=[N-] numericresult=0.855
compound=COC(=O)[C@H](Cc1ccccc1)N1CC2=CCCC=C[C@@H]2[C@H]1[C@H](O)Cc1ccccc1 numericresult=-0.306
compound="O=C1NC(=O)C2C1C=CC(C(O)c1ccc([N+](=O)[O-])cc1)N2Nc1ccccn1 (stereo not given)" numericresult=0.14
compound=C=C(CCCC)C(=O)CC[C@H](OC(=O)c1ccccc1-c1ccccc1C(=O)O)c1ccc(OCCO)cc1 numericresult=-0.403
compound="CC(C)=CCCC=C(C)C(O)C1C=CC2C(=O)N(c3ccccc3)C(=O)C2N1Nc1ccc(C#N)cc1 (stereo not given)" numericresult=0.722
compound=C=CCOC(=O)[C@H]1[C@@H]2C(=O)O[C@@H](c3ccccc3)[C@@H](c3ccccc3)N2[C@@H](c2ccc(OCCOC(=O)[C@H]3C[C@H]4C(=O)N[C@@H](CC(C)C)C(=O)N4[C@H]3c3ccc(O)cc3)cc2)[C@]12C(=O)Nc1ccccc12 numericresult=0.202
compound=N#Cc1ccc(-c2cccc(=O)o2)cc1 numericresult=-0.0642
compound=COc1ccc(C#Cc2ccc3c(c2)[C@]2(C(=O)N3)[C@H](C(=O)O)[C@H]3C(=O)O[C@H](c4ccccc4)[C@H](c4ccccc4)N3[C@@H]2c2ccccc2OCCO)cc1 numericresult=-0.126
compound="C=CC1c2cc(O)c(OC)cc2CCN1C (stereo not given)" numericresult=0.759
compound="CC(C)(C)N1CC=CC23O[C@@H]4C=CCOC(=O)[C@@H]4[C@H]2C(=O)N(CCO)[C@@H]3C1=O (stereo not given in full)" numericresult=0.375
compound="COc1cc(OC)c(C(O)C2C=CC3C(=O)N(c4ccccc4)C(=O)C3N2Nc2ccc(C(C)C)cc2)cc1Br (stereo not given)" numericresult=0.605
compound=O=C(NCc1ccccc1)[C@@H]1c2ccccc2C(=O)N(Cc2ccc(OC(F)(F)F)cc2)[C@H]1c1ccc(CO)cc1 numericresult=-0.0614
compound=CCCN1C(=O)[C@@]2(c3ccc([N+](=O)[O-])cc3)CC(=O)N(CC34CC5CC(CC(C5)C3)C4)[C@@H]2c2ccc(CO)cc21 numericresult=0.342
compound=C[C@@H]1ON(c2ccccc2)[C@H](c2ccccc2)[C@H]1C(=O)O numericresult=-0.269
compound=COc1ccc([Si](C)(C)[C@H]2[C@H](CC(=O)N3CCC[C@H]3CO)O[C@@]3(C(=O)N(Cc4ccc(N5CCCCC5=O)cc4)c4ccccc43)[C@@H]2C)cc1 numericresult=-0.466
compound=CN(C)CCCC[C@@H]1NC(=O)[C@@H]2C[C@H](C(=O)NCCCCCCNC(=O)CS)[C@H](c3ccc(O)cc3)N2C1=O numericresult=-0.294
compound=CN(C)C(=O)[C@@]1(Cc2ccccc2CN=[N+]=[N-])COC(c2ccc(OCCCO)cc2)=N1 numericresult=1.01
compound="O=C1C2C=CC(C(O)C3CCCCC3)N(n3cnnc3)C2C(=O)N1Cc1ccccc1 (stereo not given)" numericresult=0.623
compound=C[N+](C)(C)CCCC[C@@H]1NC(=O)[C@H]2C[C@@H](C(=O)NCCCCCNC(=O)CS)[C@@H](c3cccc(OCCO)c3)N2C1=O numericresult=0.47
compound=COC(=O)c1cccc([C@H]2OC(=CC(=O)OC(C)C)C[C@@H](c3cccc(C(=O)OC)c3)O2)c1 numericresult=0.284
compound=O=C1O[C@@H](c2ccccc2)[C@@H](c2ccccc2)N2[C@@H](c3ccc(OCCO)cc3)[C@]3(C(=O)Nc4ccc(C#CC5(O)CCCCCC5)cc43)[C@@H](C(=O)Nc3nc4ccccc4s3)[C@H]12 numericresult=0.662
compound=CCCC=C(CCC)[C@@H](NC(=O)c1ccc(C(F)(F)F)cc1)c1ccc(C(F)(F)F)cc1 numericresult=1.09
compound="O=C1C2C=CC(C(O)c3cccs3)N(Nc3ccc([N+](=O)[O-])cc3)C2C(=O)N1c1ccccc1 (stereo not given)" numericresult=0.25
compound=CCCC[C@H]1OB(O)C[C@H]2C1=C(COc1ccccc1)C[C@H]1C(=O)C=CC(=O)[C@H]12 numericresult=-0.56
compound=C=C(COC)C(=O)CC[C@@H](OC(=O)c1ccccc1-c1ccccc1C(=O)O)c1ccc(OCCO)cc1 numericresult=0.0721
compound=COC(=O)[C@@]1(Cc2ccccc2)[C@H]2c3cc(C(=O)N4CCCC4)n(Cc4ccc(OC)c(OC)c4)c3C[C@H]2CN1C(=O)c1ccccc1 numericresult=1.2

###

assay: compound effects on multiple myeloma cell viability – MM1S, calcein-AM fluorescence, 48 h, basal, profiling panel (AID 1165); conditions: higher = more signal; note: test concentration not given here
measurementType: z-score

molecule=COC(=O)[C@@]1(Cc2ccccc2)[C@H]2c3cc(C(=O)N(C)C)n(CCSC(=N)N)c3C[C@H]2CN1C(=O)c1ccccc1 numericresult=-0.948
molecule=Cc1ccc(S[C@]2(C(=O)NCCCN(C)C)CC(=O)N(C3Cc4ccccc4C3)[C@@H]2c2ccc(CO)cc2I)cc1 numericresult=-2.64
molecule="Cc1ccccc1C(O)C1C=CC2C(=O)N(c3ccccc3)C(=O)C2N1Nc1ccccc1 (centres undefined)" numericresult=0.928
molecule=C=C(CCCC)/C(=C/C[C@H](OC(=O)c1ccncc1)c1cccc(OCCO)c1)c1cnc2ccccc2c1 numericresult=-3.37

###

test system: PRMT1 (protein arginine N-methyltransferase 1); assay: small molecules binding arginine methyltransferase PRMT1 – biochemical, small-molecule microarray, 635 nm fluorescence, primary screen (AID 1088); conditions: higher = more signal;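 note: binding of Prmt1 protein to compounds spotted on small-molecule microarray slides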
measurementType: composite z-score

compound="CCOC(=O)C1=CCC(c2cc3ccccc3[nH]2)N(CCN2CC(C(=O)OCC)=CCC2c2cc3ccccc3[nH]2)C1 (centres undefined)" numericresult=1.4
compound="C=CCC(OC(C)=O)[C@@H]1[C@@H](N(Cc2cc3ccccc3o2)C(=O)Cc2ccc(OC)cc2)c2cc(OCCCO)ccc2N1C(=O)c1ccc2ccccc2n1 (some centres undefined)" numericresult=0.404
compound="CC1CC/C=C\\[C@H]2OC34C=CCN(Cc5ccccc5)C(=O)[C@H]3N(CCCCCCO)C(=O)[C@@H]4C2C(=O)O1 (some centres undefined)" numericresult=0.661
compound="CC(C)(C)N1CC=CC23O[C@@H]4/C=C\\CCCOC(=O)C4[C@H]2C(=O)N(CCCCCO)[C@@H]3C1=O (some centres undefined)" numericresult=-0.981
compound=C=C1C(=O)C=C2CN(C(=O)c3ccccc3)[C@@](Cc3ccc(OC)cc3)(C(=O)OC)[C@@H]12 numericresult=1.54
compound=CCCC#C[Si](O[C@H](CC)c1cn(Cc2ccccc2)nn1)(C(C)C)C(C)C numericresult=1.49
compound="C=CCC(OC(C)=O)[C@@H]1[C@@H](N(Cc2ccc(-c3cccc(C(F)(F)F)c3)o2)C(=O)Cc2ccc(F)cc2)c2cc(OCCCO)ccc2N1C(=O)Cc1ccc2ccccc2c1 (some centres undefined)" numericresult=-0.783
compound=C=CCOC(=O)[C@H]1[C@@H]2C(=O)O[C@@H](c3ccccc3)[C@@H](c3ccccc3)N2[C@@H](c2ccc(OCCOC(=O)[C@@H]3C[C@@H]4C(=O)N[C@@H](CCCC[N+](C)(C)C)C(=O)N4[C@@H]3c3ccc(O)cc3)cc2)[C@]12C(=O)Nc1ccc(I)cc12 numericresult=1.53
compound="NC(=O)N1C(=O)C2C(C1=O)C1C=C(CCCO)C2C(C2CC2)N1Cc1sc2ccccc2c1Cl (centres undefined)" numericresult=1.56
compound=C=CCOC(=O)[C@@H]1[C@H]2C(=O)O[C@H](c3ccccc3)[C@H](c3ccccc3)N2[C@H](c2ccc(OCCOC(=O)[C@H]3C[C@H]4C(=O)N[C@@H](CCCCN(C)C)C(=O)N4[C@H]3c3ccc(O)cc3)cc2)[C@@]12C(=O)Nc1ccc(I)cc12 numericresult=1.53
compound=CC(C)NC(=O)[C@@H]1c2ccccc2C(=O)N(Cc2ccccc2C(F)(F)F)[C@H]1c1ccc(CO)cc1 numericresult=-0.123
compound=C=C(COC)C(=O)CC[C@H](OC(=O)c1cccnc1)c1ccc(OCCO)cc1 numericresult=1.52
compound="C=CCC(OC(C)=O)[C@@H]1[C@@H](N(Cc2ccc(-c3cccc(C(F)(F)F)c3)o2)C(=O)c2ccc(-c3ccccc3)cc2)c2cc(OCCCO)ccc2N1C(=O)c1ccc2ccccc2c1 (some centres undefined)" numericresult=-1.39
compound="O=C1OCCC=C[C@H]2OC34C=CCN(c5ccc6ccccc6c5)C(=O)[C@H]3N(CCO)C(=O)[C@@H]4C12 (some centres undefined)" numericresult=-0.3
compound="COc1cc(OC)c(C(O)C2C=CC3C(=O)N(c4ccccc4)C(=O)C3N2Nc2ccc(C(C)C)cc2)cc1Br (centres undefined)" numericresult=1.48
compound="CC=CC(O)C1C=CC2C(=O)NC(=O)C2N1Nc1ccc(Cl)cc1Cl (centres undefined)" numericresult=-0.193
compound=C=CC[C@@]12N=C(c3ccc(OCCCO)cc3)O[C@@H]1c1ccccc1N(CCC)C2=O numericresult=1.55
compound="CCC(CC)C(O)C1C=CC2C(=O)N(c3ccccc3)C(=O)C2N1Nc1ccccc1F (centres undefined)" numericresult=0.203
compound=COc1ccc(C#Cc2ccc3c(c2)[C@]2(C(=O)N3)[C@H](C(=O)O)[C@H]3C(=O)O[C@H](c4ccccc4)[C@H](c4ccccc4)N3[C@@H]2c2ccccc2OCCO)cc1 numericresult=1.54
compound="COC(=O)C1=CC(CCCO)=CC(c2cccs2)N(Cc2cc3c(cc2Br)OCO3)C=C1C(=O)OC (centres undefined)" numericresult=1.56
compound=O=C(N1CCOCC1)[C@@]1(Cc2ccccc2)COC(c2ccc(OCCCO)cc2)=N1 numericresult=0.88
compound=O=C(NC1CC1)[C@@H]1c2ccccc2C(=O)N(Cc2cc(C(F)(F)F)cc(C(F)(F)F)c2)[C@H]1c1ccc(CO)cc1 numericresult=1.43
compound="C[C@@H]1NC(=O)C([C@@H](C)OCc2ccccc2)NC(=O)[C@@]23C(=O)N[C@@H](Cc4ccccc4)C2[C@H](C)[C@@]2(C)O[C@H]2C3/C=C/C/C=C\\CNC1=O (some centres undefined)" numericresult=-0.448
compound=C[C@@H]1ON(c2ccccc2)[C@H](c2ccccc2)[C@H]1C(=O)O numericresult=0.461
compound="O=C1C2C=CC(C(O)C3CCCCC3)N(n3cnnc3)C2C(=O)N1Cc1ccccc1 (centres undefined)" numericresult=1.51
compound=COc1ccc(C(=O)Nc2ccc3c(c2)[C@@]2(O[C@H](CCO)[C@@H]([Si](C)(C)c4ccc(OC)cc4)[C@@H]2C)C(=O)N3Cc2ccccc2)cc1 numericresult=1.28
compound=COc1ccc([Si](C)(C)[C@H]2[C@H](CCO)O[C@@]3(C(=O)N(Cc4cccc(N5C(=O)c6ccccc6Oc6ccccc65)c4)c4ccccc43)[C@@H]2C)cc1 numericresult=0.891
compound="CCCCCC1=C2CNC(CC(C)C)(C(=O)OC)C=C2C(C)C1=O (centres undefined)" numericresult=1.51
compound="CC(C)C(CO)N1C(=O)[C@@H]2C3C(=O)OCCC/C=C\\[C@H]3OC23C=CCN(Cc2ccccc2)C(=O)[C@@H]13 (some centres undefined)" numericresult=-0.928

The reported numbers originate from PubChem BioAssay.
